Biological target: SUMO (Homo sapiens)
Sequence (Q9UBT2 1-640): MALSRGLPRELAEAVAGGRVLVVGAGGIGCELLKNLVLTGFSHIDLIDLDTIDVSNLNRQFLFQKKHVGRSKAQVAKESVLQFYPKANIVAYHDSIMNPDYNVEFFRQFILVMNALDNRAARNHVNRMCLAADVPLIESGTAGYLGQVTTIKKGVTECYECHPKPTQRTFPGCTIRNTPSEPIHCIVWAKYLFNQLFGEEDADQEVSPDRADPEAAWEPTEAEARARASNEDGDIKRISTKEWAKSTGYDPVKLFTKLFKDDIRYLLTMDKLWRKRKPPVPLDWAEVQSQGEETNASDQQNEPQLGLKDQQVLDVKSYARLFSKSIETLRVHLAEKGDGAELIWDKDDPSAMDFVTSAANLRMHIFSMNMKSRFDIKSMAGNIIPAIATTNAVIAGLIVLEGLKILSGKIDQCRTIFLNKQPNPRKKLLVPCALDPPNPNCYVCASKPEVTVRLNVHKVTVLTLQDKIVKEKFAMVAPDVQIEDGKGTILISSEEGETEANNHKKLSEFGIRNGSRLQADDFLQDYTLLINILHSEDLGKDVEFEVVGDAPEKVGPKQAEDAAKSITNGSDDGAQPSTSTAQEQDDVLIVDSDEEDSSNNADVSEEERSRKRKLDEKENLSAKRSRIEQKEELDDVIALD
Sequence (Q9UBE0 1-346 partner): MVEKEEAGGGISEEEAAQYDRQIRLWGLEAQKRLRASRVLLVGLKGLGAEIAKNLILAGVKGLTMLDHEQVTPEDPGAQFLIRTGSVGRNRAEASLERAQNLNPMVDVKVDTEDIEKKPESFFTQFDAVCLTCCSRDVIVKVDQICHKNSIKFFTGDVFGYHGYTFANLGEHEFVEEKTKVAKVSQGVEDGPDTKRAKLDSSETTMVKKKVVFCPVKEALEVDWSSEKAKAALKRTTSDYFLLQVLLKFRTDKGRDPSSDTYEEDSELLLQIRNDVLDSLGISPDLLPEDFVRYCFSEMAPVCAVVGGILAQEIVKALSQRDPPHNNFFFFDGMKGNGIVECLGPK
Experiment: SUMO activity (Table I, biological activities)
Format: biochemical
Parameters: key: + (less active); ++ (active); +++ (most active)
test.readout: SUMO

Solved entries (count: 6):
                                   molecule  test_readout  reported_measurement
0  COC(=O)C1=C(C(N)=O)C2C=CC1(C(Cc1ccccc1)Nc1ccc(F)cc1)O2 (stereo not drawn)          SUMO                    ++
1  COC(=O)C1=C(C(=O)NC2CCN(C)CC2)C2(C)C=CC1(C(Cc1ccccc1)Nc1ccccc1)O2 (stereo not drawn)          SUMO                     +
2  COC(=O)C1=C(C(=O)Nc2cccnc2)C2C=CC1(C(Cc1ccccc1)Nc1cc(F)cc(F)c1)O2 (stereo not drawn)          SUMO                    ++
3  COC(=O)C1=C(C(=O)Nc2ccc(C)c(F)c2)C2C=CC1(C1OCCO1)O2 (stereo not drawn)          SUMO                     +
4  CCOC(=O)C1=C(C(=O)NCCN(CC)CC)C2C=CC1(C(Cc1ccccc1)Nc1c(F)cccc1F)O2 (stereo not drawn)          SUMO                    ++
5  CCCNC(=O)C1=C(C(=O)NCCC)C2(C(Cc3ccccc3)Nc3ccccc3)C=CC1O2 (stereo not drawn)          SUMO                     +

Give SUMO for COC(=O)C1=C(C(=O)Nc2ccncc2)C2C=CC1(C(Cc1ccccc1)Nc1cc(F)cc(F)c1)O2 (stereo not drawn)
+

Give SUMO for COC(=O)C1=C(C(=O)OC)C2(C(Cc3ccc(Cl)nc3)Nc3ccccc3)C=CC1O2 (stereo not drawn)
++

Give SUMO for COC(=O)C1=C(C(=O)NCCN2CCCC2)C2C=CC1(C(Cc1ccccc1)Nc1cc(F)cc(Cl)c1)O2 (stereo not drawn)
+++

Give SUMO for CCOC(=O)C1=C(C(=O)Nc2ccc(OC)cc2)C2C=CC1(C(Nc1ccccc1)c1ccc(CN3CCOCC3)cc1)O2 (stereo not drawn)
++

Give SUMO for COC(=O)C1=C(C(=O)OC)C2(C(Nc3ccccc3)c3ccc4ccc(OC)cc4c3)C=CC1O2 (stereo not drawn)
++

Give SUMO for COC(=O)C1=C(C(=O)NNc2ccccc2)C2C=CC1(C(Cc1ccccc1)Nc1cc(F)cc(Cl)c1)O2 (stereo not drawn)
++

Give SUMO for CCOC(=O)C1=C(C(=O)Nc2ccc(OC)cc2)C2(C)C=CC1(C(Nc1ccccc1)c1ccc(CN3CCOCC3)cc1)O2 (stereo not drawn)
+

Give SUMO for COC(=O)C1=C(C(=O)O)C2C=CC1(C(Cc1ccccc1)Nc1cc(F)cc(Cl)c1)O2 (stereo not drawn)
++

Give SUMO for COC(=O)C1=C(C(=O)OC)C2(C(Cc3cccc4ccccc34)Nc3ccccc3)C=CC1O2 (stereo not drawn)
++

Give SUMO for COC(=O)C1=C(C(=O)NCc2ccccn2)C2OC1(C(Cc1ccccc1)Oc1ccccc1)C1OC21 (stereo not drawn)
++

Give SUMO for CCOC(=O)C1=C(C(=O)Nc2ccc(OC)cc2OC)C2C=CC1(C(Nc1ccccc1)c1ccc(CN3CCOCC3)cc1)O2 (stereo not drawn)
+

Give SUMO for COC(=O)C1=C(C(=O)NC2CCN(C)C2)C2C=CC1(C(Cc1ccccc1)Nc1cc(F)cc(Cl)c1)O2 (stereo not drawn)
+++

Give SUMO for COC(=O)C1=C(C(=O)NC2CCN(Cc3ccccc3)CC2)C2CCC1(C(Cc1ccccc1)Nc1ccccc1)O2 (stereo not drawn)
+

Give SUMO for CCOC(=O)C1=C(C(=O)Nc2ccc(C)c(F)c2)C2C=CC1(C(Nc1ccc(C)cc1)c1ccc(CN3CCOCC3)cc1)O2 (stereo not drawn)
+

Give SUMO for COC(=O)C1=C(C(=O)OC)C2(C(Cc3ccccc3)Nc3cc(F)cc(F)c3)C=CC1O2 (stereo not drawn)
++

Give SUMO for COC(=O)C1=C(C(=O)NC2CCN(C)CC2)C2C=CC1(C(Cc1ccccc1)Nc1cccc(Oc3ccccc3)c1)O2 (stereo not drawn)
+++

Give SUMO for COC(=O)C1=C(C(=O)Nc2ccc(C)nc2)C2C=CC1(C(Cc1ccccc1)Nc1ccccc1)O2 (stereo not drawn)
++

Give SUMO for COC(=O)C1=C(C(=O)Nc2ccc(OC)nc2)C2C=CC1(C(Cc1ccccc1)Nc1ccccc1)O2 (stereo not drawn)
++

Give SUMO for COC(=O)C1=C(C(N)=O)C2C=CC1(C(Cc1ccccc1)Nc1cccc(CO)c1)O2 (stereo not drawn)
++

Give SUMO for CCOc1cccc(NC(Cc2ccccc2)C23C=CC(O2)C(C(=O)O)=C3C(=O)OC)c1 (stereo not drawn)
+

FYI, the data here is from patent US11578079B2.
